# Test system: SK-OV-3
# Test description: NCI tumour cell line growth inhibition, 48 h
Activity calls are given as the source filed them. No stated cut-off is given here; in the data, active = GI50 up to about 1.1 µM and inactive = higher.
Recorded metric: GI50

See these solved cases before continuing.
In [3]: df
Out[3]:
                                   compound  experimental_target      endpoint_result
0         CCOC(=O)CC(=O)ON(C)C(=O)Cc1ccccc1              SK-OV-3  > 100 µM (inactive)
1  c1ccc(/C(=N\Nc2nc3ccccc3[nH]2)c2ccccn2)cc1              SK-OV-3    0.342 µM (active)
2          COc1cccc(-n2nnc3c(N)nc(N)nc32)c1              SK-OV-3  > 100 µM (inactive)
3  CC1=C(\C=C/C(C)=C/C=C/C(C)=C/C=C/C=C(C)\C=C\C=C(C)/C=C/C2=C(C)CCCC2(C)C)C(C)(C)CCC1              SK-OV-3  > 100 µM (inactive)
4  COc1ccc(N2C(=O)/C(=C/c3ccc(N(CCC#N)CCC#N)cc3)N=C2c2ccccc2)c(OC)c1              SK-OV-3  > 100 µM (inactive)
5  Cc1ccccc1-n1c(=O)c2ncn(CCCl)c2n(-c2ccccc2C)c1=S              SK-OV-3  > 100 µM (inactive)
6  O=C1C(Cl)C(c2cc3cc(Br)ccc3nc2Cl)N1c1c(Cl)cccc1Cl (stereo unspecified)              SK-OV-3   > 25 µM (inactive)
7  CN(C)CCCOC(=O)C(O)(Cc1ccccc1)C1CC1 (stereo unspecified)              SK-OV-3  > 100 µM (inactive)

Query CN(C)CCNC(=O)c1cccc2c(NC(CCCNC(=N)N)C(=O)O)c3ccccc3[n+](C)c12 (stereo unspecified) yields GI50 of > 100 µM (inactive)

Query COc1cc(C2c3cc4c(cc3[C@@H](Nc3ccc(C#N)cc3)C3COC(=O)[C@H]23)OCO4)cc(OC)c1O (stereo partly specified) yields GI50 of 1.63 µM (inactive)
